assay: Cmax in BALB/c mouse at 2 mg/kg, iv; type: ADME, organism-based; design: dose 2 mg/kg, route intravenous; settings: in vivo
measure: Cmax
A complete answer gives the number followed by the unit.

Asked: Please report the recorded Cmax for COc1ccc(C(=O)NC(=O)Nc2ccc3c(c2)NC(=O)/C3=C\c2[nH]c(C)c(C(=O)NCCN3CCCC3)c2C)c(F)c1 .
Given back: 654 ng/mL

###

biological target: Aurora kinase B (Homo sapiens); test: Inhibition of Aurora B (unknown origin) using HLRRASLG substrate at 1 uM
Sequence (Q96GD4 whole entry): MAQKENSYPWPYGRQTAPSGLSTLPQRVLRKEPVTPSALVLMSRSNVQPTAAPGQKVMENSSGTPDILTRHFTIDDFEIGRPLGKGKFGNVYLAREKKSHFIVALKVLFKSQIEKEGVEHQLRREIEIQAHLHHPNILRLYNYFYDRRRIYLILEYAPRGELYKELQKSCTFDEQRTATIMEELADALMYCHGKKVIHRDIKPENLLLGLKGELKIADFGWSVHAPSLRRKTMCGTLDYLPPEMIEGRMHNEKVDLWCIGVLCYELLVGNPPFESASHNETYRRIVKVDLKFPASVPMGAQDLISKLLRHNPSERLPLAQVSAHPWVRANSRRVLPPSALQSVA
Tag: y if measured inhibition is not below 60%, n if it is.

Answered cases to consult:
Asked: Evaluate COc1ccc(C(=O)NC(=O)Nc2ccc3c(c2)NC(=O)/C3=C/c2cccc(C(=O)O)c2)cc1 : inhibition at minimum 60%?
Given back: y

Asked: Evaluate COc1ccc(C(=O)NC(=O)Nc2ccc3c(c2)NC(=O)/C3=C/c2ccc(O)cc2)cc1 : inhibition at minimum 60%?
Given back: y

Asked: Evaluate COc1ccc(C(=O)NC(=O)Nc2ccc3c(c2)NC(=O)/C3=C/c2ccc(Cl)cc2)cc1 : inhibition at minimum 60%?
Given back: n

Asked: Evaluate COc1ccc(C(=O)NC(=O)Nc2ccc3c(c2)NC(=O)/C3=C/c2ccco2)cc1 : inhibition at minimum 60%?
Given back: n

# evaluate next
Asked: Evaluate COc1ccc(C(=O)NC(=O)Nc2ccc3c(c2)NC(=O)/C3=C\c2ccc[nH]2)cc1 : inhibition at minimum 60%?
Given back: y

###

assay: Half life in BALB/c mouse at 2 mg/kg, iv; format: ADME, organism-based; parameters: dose 2 mg/kg, route intravenous; conditions: in vivo
measure: half-life (h)
# unit: h | format: bare number

Asked: Please report the recorded half-life for COc1ccc(C(=O)NC(=O)Nc2ccc3c(c2)NC(=O)/C3=C\c2[nH]c(C)c(C(=O)NCCN3CCCC3)c2C)c(F)c1 .
Given back: 27.6

###

tested on: THP-1; test: Cytotoxicity against human THP1 cells assessed as cell viability at 1 uM after 48 hrs by MTT assay; type: functional; details: THP-1, 48 h, read-out: Activity
measure: viability at 1 µM (%)
# unit: % | format: bare number

Asked: What is its viability at 1 µM for THP-1? Entry: COc1ccc(C(=O)NC(=O)Nc2ccc3c(c2)NC(=O)/C3=C/c2ccc(Cl)c(Cl)c2)cc1
Given back: 68

Asked: What is its viability at 1 µM for THP-1? Entry: COc1ccc(C(=O)NC(=O)Nc2ccc3c(c2)NC(=O)/C3=C/c2ccccn2)cc1
Given back: 85

Asked: What is its viability at 1 µM for THP-1? Entry: COc1ccc(C(=O)NC(=O)Nc2ccc3c(c2)NC(=O)/C3=C/c2ccccc2)cc1
Given back: 76

Asked: What is its viability at 1 µM for THP-1? Entry: COc1ccc(C(=O)NC(=O)Nc2ccc3c(c2)NC(=O)/C3=C\c2ccc(C(=O)O)[nH]2)cc1
Given back: 65

Asked: What is its viability at 1 µM for THP-1? Entry: COc1ccc(C(=O)NC(=O)Nc2ccc3c(c2)NC(=O)/C3=C/c2cccc(C(=O)O)c2)cc1
Given back: 71

Others:
Asked: What is its viability at 1 µM for THP-1? Entry: COc1ccc(C(=O)NC(=O)Nc2ccc3c(c2)NC(=O)/C3=C/c2ccc(O)cc2)cc1
Given back: 54

Asked: What is its viability at 1 µM for THP-1? Entry: COc1ccc(C(=O)NC(=O)Nc2ccc3c(c2)NC(=O)/C3=C/c2ccco2)cc1
Given back: 74

Asked: What is its viability at 1 µM for THP-1? Entry: COc1ccc(C(=O)NC(=O)Nc2cccc3c2NC(=O)/C3=C\c2ccc[nH]2)cc1
Given back: 53

###

target: Receptor-type tyrosine-protein kinase FLT3 (Homo sapiens) (UniProt P36888); assay: Inhibition of FLT3 (unknown origin) using EAIYAAPFAKKK substrate at 1 uM
Sequence (P36888 whole entry): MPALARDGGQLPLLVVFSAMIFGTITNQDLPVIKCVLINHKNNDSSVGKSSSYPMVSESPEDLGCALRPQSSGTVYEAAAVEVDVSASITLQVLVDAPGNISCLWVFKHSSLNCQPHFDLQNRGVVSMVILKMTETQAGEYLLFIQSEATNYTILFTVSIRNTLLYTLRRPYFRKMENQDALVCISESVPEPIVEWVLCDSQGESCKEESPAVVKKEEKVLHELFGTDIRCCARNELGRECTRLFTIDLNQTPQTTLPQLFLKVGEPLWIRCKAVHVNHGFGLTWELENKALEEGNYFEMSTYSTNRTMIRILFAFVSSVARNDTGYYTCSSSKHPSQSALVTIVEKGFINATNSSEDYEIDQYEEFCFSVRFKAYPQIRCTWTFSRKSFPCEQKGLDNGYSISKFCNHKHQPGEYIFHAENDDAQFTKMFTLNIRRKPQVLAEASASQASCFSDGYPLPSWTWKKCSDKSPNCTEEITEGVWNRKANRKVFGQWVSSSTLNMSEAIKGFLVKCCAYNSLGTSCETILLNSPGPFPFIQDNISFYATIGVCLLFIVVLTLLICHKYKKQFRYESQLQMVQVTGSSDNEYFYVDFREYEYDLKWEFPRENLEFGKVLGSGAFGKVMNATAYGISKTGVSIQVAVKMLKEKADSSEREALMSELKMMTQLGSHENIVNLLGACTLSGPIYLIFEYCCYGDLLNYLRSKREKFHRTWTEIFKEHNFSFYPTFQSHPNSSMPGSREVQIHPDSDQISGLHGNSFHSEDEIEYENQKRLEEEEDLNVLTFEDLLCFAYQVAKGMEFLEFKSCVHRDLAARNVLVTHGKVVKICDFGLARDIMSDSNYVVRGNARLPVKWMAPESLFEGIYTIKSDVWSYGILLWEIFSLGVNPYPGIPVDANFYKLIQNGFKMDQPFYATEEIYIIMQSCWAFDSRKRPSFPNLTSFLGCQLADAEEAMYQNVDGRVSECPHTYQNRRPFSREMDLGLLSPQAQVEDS
measure: inhibition (%)
# unit: % | format: bare number

Examples from the recorded data:
Asked: Please report the recorded inhibition for COc1ccc(C(=O)NC(=O)Nc2ccc3c(c2)NC(=O)/C3=C/c2ccco2)cc1 .
Given back: 15

Asked: Please report the recorded inhibition for COc1ccc(C(=O)NC(=O)Nc2ccc3c(c2)NC(=O)/C3=C/c2ccc(Cl)c(Cl)c2)cc1 .
Given back: 19

Asked: Please report the recorded inhibition for COc1ccc(/C=C2/C(=O)Nc3cc(NC(=O)NC(=O)c4ccc(OC)cc4)ccc32)cc1 .
Given back: 43

Asked: Please report the recorded inhibition for COc1ccc(C(=O)NC(=O)Nc2cccc3c2NC(=O)/C3=C\c2ccc[nH]2)cc1 .
Given back: 7

Asked: Please report the recorded inhibition for COc1ccc(C(=O)NC(=O)Nc2ccc3c(c2)NC(=O)/C3=C/c2ccccc2)cc1 .
Given back: 34

Let us move to another entry and its inhibition.
Asked: Please report the recorded inhibition for COc1ccc(C(=O)NC(=O)Nc2ccc3c(c2)NC(=O)/C3=C/c2ccc(N(C)C)cc2)cc1 .
Given back: 40

###

tested on: MV4-11; test: Cytotoxicity against human MV4-11 cells assessed as cell viability after 48 hrs by MTT assay; type: functional, cell-based; conditions: Homo sapiens, MV4-11, 48 h
// reported pIC50 per item
Convention used: pIC50 is expressed as -log10 of the molar concentration.

Examples from the recorded data:
Asked: Please report the recorded pIC50 for CN(C)c1ccc(C(=O)NC(=O)Nc2ccc3c(c2)NC(=O)/C3=C\c2ccc[nH]2)cc1 .
Given back: 6.58

Asked: Please report the recorded pIC50 for COc1ccc(C(=O)NC(=O)Nc2ccc3c(c2)NC(=O)/C3=C\c2[nH]c(C)c(C(=O)O)c2C)c(F)c1 .
Given back: 8.28

Asked: Please report the recorded pIC50 for CCN(CC)CCNC(=O)c1c(C)[nH]c(/C=C2\C(=O)Nc3cc(NC(=O)NC(=O)c4ccc(OC)cc4F)ccc32)c1C .
Given back: 7.75

Others:
Asked: Please report the recorded pIC50 for COc1ccc(C(=O)NC(=O)Nc2ccc3c(c2)NC(=O)/C3=C\c2[nH]c(C)c(C(=O)O)c2C)cc1 .
Given back: 7.92

Asked: Please report the recorded pIC50 for O=C(NC(=O)c1ccc(Cl)cc1)Nc1ccc2c(c1)NC(=O)/C2=C\c1ccc[nH]1 .
Given back: 7.71

Asked: Please report the recorded pIC50 for Cc1ccc(C(=O)NC(=O)Nc2ccc3c(c2)NC(=O)/C3=C\c2ccc[nH]2)cc1 .
Given back: 6.55

###

experiment: Tmax in BALB/c mouse at 2 mg/kg, iv; format: ADME, organism-based; set-up: dose 2 mg/kg, route intravenous; conditions: in vivo
measure: Tmax (min)
# unit: min | format: bare number

Asked: Please report the recorded Tmax for COc1ccc(C(=O)NC(=O)Nc2ccc3c(c2)NC(=O)/C3=C\c2[nH]c(C)c(C(=O)NCCN3CCCC3)c2C)c(F)c1 .
Given back: 6

###

tested on: MV4-11; assay: Cytotoxicity against human MV4-11 cells assessed as cell viability after 48 hrs by MTT assay; assay type: functional, cell-based; details: Homo sapiens, MV4-11, 48 h
// reported pIC50 per item
Convention used: pIC50 is expressed as -log10 of the molar concentration.

Examples from the recorded data:
Asked: Please report the recorded pIC50 for CCN(CCO)CCCOc1ccc2c(Nc3cc(CC(=O)Nc4cccc(F)c4)[nH]n3)ncnc2c1 .
Given back: 8.07

Asked: Please report the recorded pIC50 for COc1ccc(C(=O)NC(=O)Nc2ccc3c(c2)NC(=O)/C3=C\c2[nH]c(C)c(CC(=O)O)c2C)cc1 .
Given back: 8.38

Asked: Please report the recorded pIC50 for COc1ccc(C(=O)NC(=O)Nc2ccc3c(c2)NC(=O)/C3=C\c2[nH]c(C)c(C(=O)NCCN(C)C)c2C)c(F)c1 .
Given back: 8.09

Asked: Please report the recorded pIC50 for CCOC(=O)c1c(C)[nH]c(/C=C2\C(=O)Nc3cc(NC(=O)NC(=O)c4ccc(OC)cc4F)ccc32)c1C .
Given back: 7.95

Asked: Please report the recorded pIC50 for COc1ccc(C(=O)NC(=O)Nc2cc3c(cc2F)/C(=C/c2[nH]c(C)c(CCC(=O)O)c2C)C(=O)N3)cc1 .
Given back: 7.58

Asked: Please report the recorded pIC50 for O=C(NC(=O)c1ccccc1)Nc1ccc2c(c1)NC(=O)/C2=C\c1ccc[nH]1 .
Given back: 6.62

Asked: Please report the recorded pIC50 for COc1ccc(C(=O)NC(=O)Nc2ccc3c(c2)/C(=C/c2ccc[nH]2)C(=O)N3)cc1 .
Given back: 6.59

Let us move to another entry and its pIC50.
Asked: Please report the recorded pIC50 for COc1ccc(C(=O)NC(=O)Nc2ccc3c(c2)NC(=O)/C3=C/c2cccs2)cc1 .
Given back: 6.53

###

experiment: Half life in BALB/c mouse at 10 mg/kg, po; format: ADME, organism-based; set-up: dose 10 mg/kg, route oral; details: in vivo
measure: half-life (h)
# unit: h | format: bare number

Asked: Please report the recorded half-life for COc1ccc(C(=O)NC(=O)Nc2ccc3c(c2)NC(=O)/C3=C\c2[nH]c(C)c(C(=O)NCCN3CCCC3)c2C)c(F)c1 .
Given back: 8.6
